# Tested on: HCT-116 colon
# Test Description: NCI tumour cell line growth inhibition, 48 h
Consider the following compounds; for each one, report its TGI.
Answer format: numeric, µM implied, no suffix.

Problem: Answer with reported TGI of `COc1ccc(/C(Cl)=C(\C=O)c2ccc([N+](=O)[O-])cc2)cc1OC`
Result: 24.9

Problem: Specify measured TGI for COC(=O)C1=C(C(=O)OC)C2(OC(C)=O)c3ccccc3-c3ccccc3C12 (stereo not given) .
Result: 7.98

Problem: Look up TGI of `CN(C)CCNc1ccc2c(=O)n(CCN(C)C)c(=O)n3c4ccc([N+](=O)[O-])cc4c(=O)c1c23` and report it.
Result: 1.24

Problem: Answer with the recorded TGI of `CCNCC(=O)O[C@]1(CC)C(=O)OCc2c1cc1n(c2=O)Cc2cc3ccccc3nc2-1` only.
Result: 3.29

###

Assignment: determine reported TGI for the given compounds.
# System: A498 renal
# Test Description: NCI tumour cell line growth inhibition, 48 h

Problem: Please report the measured TGI for N#CC(C(=O)/C(=N\Nc1nc(=S)[nH]n1N)C(C#N)c1ccc(Cl)cc1)c1ccc(Cl)cc1 (configuration not stated)
Result: > 100 µM

Problem: Identify measured TGI associated with `Cc1[nH]c(=O)nc(N/N=C/c2ccc(Cl)cc2)c1C(=O)NC(C)(CO)CO`
Result: > 100 µM

Problem: Assign TGI to the following record: CC1C[C@H](OC(N)=O)C(C)CC1=O (some centres not stated)
Result: > 100 µM

Problem: Return value of TGI for input `CCCCC(=O)Nc1ccc2cc(C(=O)OC)c(ON3C(=O)c4ccccc4C3=O)nc2n1` , no commentary.
Result: > 100 µM

Problem: Indicate its recorded TGI; the compound in question is NC(=O)N1N=C2c3ccccc3CC[C@@H]2C1c1ccccc1 (some centres not stated)
Result: > 100 µM

Problem: Answer with the recorded TGI of `Clc1ccc(SCCSCCCCCCCCCCSCCSc2ccc(Cl)cc2)cc1` only.
Result: > 100 µM

Problem: Consider the compound `COc1cc2c(cc1OCCOS(C)(=O)=O)N=C[C@@H]1CCCN1C2=O` . State its measured TGI.
Result: 48.7 µM

Problem: Dear colleague, please send me the reported TGI for `CCCc1c(OC)c(=O)c2c(OC)cc(OC)c3c4c(OC)cc(OC)c5c(=O)c(OC)c(CCC)c(c1c23)c54` when you can.
Result: 37.1 µM

Problem: Report TGI for `CN(C)CCNc1ccc2c(=O)n(CCN(C)C)c(=O)n3c4ccc([N+](=O)[O-])cc4c(=O)c1c23`
Result: 5.55 µM

Problem: # return recorded TGI for input `CCc1n[nH]c(=O)n1/N=C/c1ccccc1Cl`
Result: > 100 µM

Problem: Supply measured TGI of CC(C)C1OC(=O)C=C1Sc1ccccc1 (configuration not stated) in your reply.
Result: > 100 µM

Problem: Determine its reported TGI: `COc1ccc(/C=C2\C[C@H]3[C@@H]4CCC5=C[C@@H](N6CCCC6)CC[C@]5(C)[C@H]4CC[C@]3(C)[C@H]2O)cc1`
Result: 3.2 µM

Problem: Please give the documented TGI of COc1ccc(/C(=N/NC(=O)NN)C(c2ccc(OC)cc2)C2(O)CNc3c(Cl)cc(Cl)cc32)cc1 (configuration not stated)
Result: > 100 µM

Problem: Fill in TGI for record CCCCCC(O)C1C(=O)OC(C)C(O)/C=C/C=C/C=C/C=C\C=C(\C)C(O)CC(O)CC(O)CC(O)CC(O)CC(O)CC1O (configuration not stated)
Result: > 100 µM

Problem: // fetch TGI given entry `Cc1ccc(NC(=O)c2cccc([N+](=O)[O-])c2O)c([N+](=O)[O-])c1`
Result: 31.5 µM

Problem: For the compound `CCCn1c(SCC)c2ccccc2c1-c1nc(F)nc(F)n1` , give its measured TGI value.
Result: > 100 µM

Problem: Answer with reported TGI of O=C(CC1(O)C(=O)Nc2ccccc21)c1ccccc1Cl (configuration not stated)
Result: > 100 µM

Problem: Give the reported TGI for this compound. COCC1CCCN1c1ccc(/C=C(/C#N)C(N)=S)cc1 (configuration not stated)
Result: > 100 µM

Problem: Indicate the recorded TGI value for this compound: `CCCCCNc1nonc1N`
Result: > 100 µM

Problem: Check the records and state TGI for `Cc1cc(N(CCC#N)S(C)(=O)=O)ccc1C=O`
Result: > 100 µM

Problem: Item `CC1(C)N=C(C(N)=O)c2ncn(-c3ccccc3)c2N1` : provide TGI
Result: > 100 µM

Problem: Return value of TGI for input CCC(C)n1cc(C)c2c(C(=O)NCc3c(C)cc(C)[nH]c3=O)cc(Br)cc21 (configuration not stated) , no commentary.
Result: > 100 µM

Problem: Provide one value: measured TGI of `COc1cccc(NC(=S)Nn2c(C)nc3ccccc3c2=O)c1`
Result: > 100 µM

Problem: Supply measured TGI of `Cc1ccc(S(=O)(=O)NN=C2CCCCCCCCCCC2)cc1` in your reply.
Result: > 100 µM

Problem: # return recorded TGI for input `Cn1c(=O)cc(NCc2ccc(Cl)cc2)[nH]c1=O`
Result: > 100 µM

Problem: Using known records, supply TGI for `Cc1ccc(-c2nc(SCC(=O)O)n[nH]2)cc1`
Result: > 100 µM

Problem: Give me measured TGI, please, for this compound: `N#Cc1c(-c2ccc([N+](=O)[O-])cc2)cc(-c2ccc(Nc3ccnc4cc(C(F)(F)F)ccc34)cc2)nc1N`
Result: > 71.3 µM

Problem: Give reported TGI value for CC1=C2c3c(C)ccc4ccc(C)c(c34)C2(O)C(C)C1=O (configuration not stated)
Result: > 100 µM

Problem: Let me know recorded TGI for `CON(C)C(C#N)=C(C#N)C#N` , thanks.
Result: > 10 µM

Problem: Retrieve TGI measured for `C=C1C[C@](OC)([C@H](O)C(=O)N[C@@H](OC)[C@@H]2C[C@@H](O)C(C)(C)[C@@H](C[C@@H](COC)OC)O2)O[C@H](C)[C@@H]1C` and print it.
Result: 0.00288 µM

Problem: Specify reported TGI for the compound shown: COc1nc(SC)nc2c1cnn2C1OC(C(O)CO)C(OC)C1O (configuration not stated)
Result: > 100 µM

Problem: Given `O=c1oc2ccccc2c(O)c1C(c1ccco1)c1c(O)c2ccccc2oc1=O` , respond with its TGI.
Result: > 100 µM

Problem: Return reported TGI. Input compound: O=C1C(CN2CCCCC2)CCCC1CN1CCCCC1 (configuration not stated)
Result: > 100 µM

Problem: Annotate the compound `O=C(/C=C/c1ccc(Cl)cc1)Oc1ccc(/C=C2\CCCCC2=O)cc1` with its measured TGI.
Result: > 100 µM

Problem: Give me measured TGI, please, for this compound: `CCCCCCCC/C=C/CCCCCCCC1=NCC[N+]1(CCO)CCO`
Result: 14.2 µM

Problem: Indicate the recorded TGI value for this compound: COc1ccc(-c2csc(=Nc3ccccc3)n2CC(O)c2ccc([N+](=O)[O-])cc2)cc1 (configuration not stated)
Result: > 100 µM

Problem: Return TGI (reported value) for this compound: COc1ccc(C2=NNC(=O)OC2c2ccccc2)cc1 (configuration not stated)
Result: > 100 µM

Problem: Recall and state the measured TGI for `CC(=O)C(=[N+]=[N-])C(=O)OC(C)(C)C#N` .
Result: > 10 µM

Problem: Query TGI for `O=[N+]([O-])c1cccc2nc3ccccc3c(NCCc3cccc[n+]3[O-])c12`
Result: 0.225 µM

Problem: Tell me its TGI given `C/C(=N\NC(=O)c1ccncc1)c1ccc2ccccc2c1O` as the entry.
Result: 53.3 µM

Problem: // Input: `CC1(C)CC[C@]2(C)CC=C3[C@]4(C)CC[C@H]5C(C)(C)C(=O)CC[C@]5(C)[C@H]4CC[C@@]3(C)[C@H]2C1` . Output its TGI only.
Result: > 100 µM

Problem: Provide TGI value for the following compound: COC1=CC(=O)[C@H]2[C@H](C)C(c3ccccc3)[C@@]2(C)C1=O (some centres not stated)
Result: > 100 µM

###

# Test system: PC-3 prostate
# Test Description: NCI tumour cell line growth inhibition, 48 h
Kindly supply the reported TGI values for the records listed here.

Problem: In one line, give reported TGI of the entry `COc1cc(C(=O)/C=C/c2cc(C(=O)c3cc(OC)c(OC)c(OC)c3)ccc2OC)ccc1N` .
Result: 7.4 µM

Problem: In one line, give reported TGI of the entry `Cc1nc2sccn2c(=O)c1CCN1CCC(=C(c2ccc(F)cc2)c2ccc(F)cc2)CC1` .
Result: 19.3 µM

Problem: Give the value of TGI reported for the following: `COc1ccc2nc3ccc(OC)cc3c(S(=O)(=O)Cc3ccc([N+](=O)[O-])cc3)c2c1`
Result: > 100 µM

Problem: Give reported TGI value for CC(=O)OC1CC(n2cc(F)c(=O)[nH]c2=O)OC1CO (stereo not given)
Result: > 100 µM

Problem: For the molecule `Cc1c(CCOC=O)c(=O)[nH]c2nncn12` , give its measured TGI value.
Result: > 100 µM

Problem: Provide only the value of recorded TGI for CC1(C2(C)OC(=O)c3ccccc32)OC(=O)c2ccccc21 (stereo not given)
Result: > 100 µM

Problem: Let me know recorded TGI for CCSCC(N)C(=O)O (stereo not given) , thanks.
Result: > 100 µM

Problem: Answer with the recorded TGI of CC(C)(C)[Si](C)(C)OCC1OC(n2cnc3c(NC(=O)c4ccccc4)ncnc32)CC1O (stereo not given) only.
Result: 95.5 µM

Problem: Item `O=[N+]([O-])c1cccc2nc3ccccc3c(NCCc3cccc[n+]3[O-])c12` : provide TGI
Result: 1.51 µM

Problem: Assign TGI to the following record: `Cc1ccc(-c2c(C#N)c(S)n(NS(=O)(=O)c3ccc(C)cc3)c(=O)c2C#N)cc1`
Result: > 100 µM

Problem: Report TGI, nothing else, for this molecule: CS(=O)CCCCCN=C=S (stereo not given)
Result: 25.6 µM

Problem: Please supply the value of reported TGI for the item Cn1nc(/C=C\C(=O)N2CC(CCl)c3c2cc(N)c2ccccc32)cc1/C=C/C(=O)N1CC(CCl)c2c1cc(N)c1ccccc21 (stereo not given)
Result: 0.0596 µM

Problem: Return TGI for the following molecule: OC12COc3ccccc3C1Oc1ccccc1C2 (stereo not given)
Result: > 100 µM

Problem: In one line, give reported TGI of the entry CC(=O)OCC1OC(n2c3c(c(-c4ccco4)c(C#N)c2=S)CCC3)C(OC(C)=O)C(OC(C)=O)C1OC(C)=O (stereo not given) .
Result: > 100 µM

Problem: State its TGI for this molecule: `CC(C)NC(=O)CN1CCN(C2=CC(=O)c3c(O)ccc(O)c3C2=O)CC1`
Result: > 80.5 µM

Problem: Determine from records and report TGI for CC1(C23CC4CC(CC(C4)C2)C3)n2c(=O)n(-c3ccccc3)c(=O)n2C1(C)C12CC3CC(CC(C3)C1)C2 (stereo not given)
Result: > 100 µM

Problem: Return TGI (reported value) for this molecule: O=[N+]([O-])c1ccc(C2=NOC(c3ccccc3F)N2C23CC4CC(CC(C4)C2)C3)cc1 (stereo not given)
Result: > 100 µM

Problem: Let me know recorded TGI for O=C1C(/C=C/c2ccc(Cl)cc2)=NNC2N1N=C1NC(=O)C3(NN12)c1ccccc1-c1ccccc13 (stereo not given) , thanks.
Result: > 100 µM

Problem: Retrieve TGI measured for `CCOC(=O)c1csc(NC(=O)CCN2CCCCC2)n1` and print it.
Result: > 100 µM

Problem: Find the measured TGI of COc1cc(C2c3cc4c(cc3OC(Nc3ccc(C(=O)O)cc3)C2C)OCO4)cc(OC)c1OC (stereo not given) and report it.
Result: > 100 µM
